- assayText: Apparent permeability from apical to basolateral side in MDCK cells
- Format: ADME, cell-based, Canis lupus familiaris
- testConditions: dog
property: Papp A→B

Identify measured Papp A→B corresponding to CN(CCC#N)C1CCN(C(=O)Cn2cc(NC(=O)c3cnn4cccnc34)c(-c3cc(Cl)ccc3OC(F)F)n2)CC1
2.7 ×10⁻⁶ cm/s
